FYI, the data here is from PubChem BioAssay (NCI).

# Run description: NCI Yeast Anticancer Drug Screen. Data for the rad50EPP+ strain (AID 151);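 note: 0% = growth of vehicle-treated control cultures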
# Run conditions: S. cerevisiae rad50 mutant strain, at 33.0 µM, hits give high values
Compounds without any hit were thinned out: in the full panel of roughly 79,000, 15% have a hit.
# growth inhibition annotations
Observation type: growth inhibition (%)

1) O=C(NC(=S)Nc1ccccn1)c1ccccc1 = -53
2) COc1ccc2c(c1)[nH]c1c(/C=C/c3ccccc3)nccc12 = 46
3) COc1ccc(SCc2cc(OC)ccc2OC)cc1 = 30
4) C/C=C/[P+](c1ccccc1)(c1ccccc1)c1ccccc1 = 0
5) Cc1ccc(Nc2c3c(c(C#N)c4nc5ccccc5n24)CCCC3)cc1 = 38
6) O=NN(CCCl)C(=O)NC1CCCCC1 = 61
7) NNC(=S)Nc1cccc(Cl)c1 = -55
8) OCCNCCOc1ccc(/C(=C(/Cl)c2ccccc2)c2ccccc2)cc1 = 70
9) COc1ccc(/C(C#N)=C/c2ccc(OC)c(OC)c2)cc1 = 60
10) S=c1cn[nH]c2ccc(Br)cc12 = 70
11) Cc1cc(N=C2C=CC(=[N+](C)C)C=C2)c(N)cc1N = 9
12) O=C1C=CC(=O)N1c1ccc(I)cc1 = 100
13) Clc1nc(C(Cl)Cl)nc2sc3c(c12)CCCC3 = 0
14) CC(C)(C)[OH+][O-].[O-]c1ccc(Cl)cc1C=Nc1ccc(Cl)cc1[O-].[O]=[V] = 43
15) CN(N=O)C(=O)N[C@@H](C=O)[C@@H](O)[C@H](O)[C@H](O)CO = -7
16) O=Nn1c2ccccc2c2ccccc21 = 50
17) O=C(NCCCCCN1CCC2(CCCCC2)CC1)C(C1CCCCC1)C1CCCCC1 = 10
18) C(=N/NC1=NCCN1)/c1c2ccccc2c(/C=N\NC2=NCCN2)c2ccccc12 = 92
